All values here come from the NTF2 design screens of Basanta et al. (2020).

protease stability score: recorded values
test: protease stability score; higher = more stable; yeast display proteolysis, trypsin and chymotrypsin;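 also: relative to predicted unfolded state with 0 unfolded-like and 1 meaning tenfold more protease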
attribute-measured: protease stability score

[[record]]
seq_string = "DESEELVRRFLEERIQDLRTGNWERIHENLDPNVRLIVNGRIFHGREALHVFRRRVDHNEDEKIRDVRIQGDKAEVDMEVLGVVNGVRTNFEAKLIMTKFDGKWSVKEVQID"
attribute_measured = "protease stability score"
recorded_number = 1.75

[[record]]
seq_string = "SEEDEADHELVQWMLEILQTGDEETFRTFADPSTRHISHIDGKEMHIHGRESASEVLLTTWKELGVDVFHLHQYRYFNGRVDIEFELHQGNKTIELHFHYQIINGRLKRIEIRVHHE"
attribute_measured = "protease stability score"
recorded_number = 1.14

[[record]]
seq_string = "DEDTRLAEDELQLWVEHVETGDEDTLFELLDPNVRLHIGDKELHGREAWVQWLVEARVEHVHIRDIKVVDGKVLITGRIIFRVGDKRVDTDHHMIIEKINGRWVLHEIHFH"
attribute_measured = "protease stability score"
recorded_number = 2.07

[[record]]
seq_string = "NEEEDINHHIVELFFHLLHTGDWEELEKLADPHARLEINGRRFHGRENVVTQLWELLHRIDHVEIRDLRVQGDKVHVDTRLRIGDKEKKTEWDIVVVNGKIKRSRVRVH"
attribute_measured = "protease stability score"
recorded_number = 2.02

[[record]]
seq_string = "DEEEKATHEAIEEIIETLRTGDEHIMRELMDPHVKVVQGDKEHHGRESFIKWMRLWFERAGVDQIDMRIKDHDSQGEKITLDGSLYVNGVEIDTHIISHKINGRWLNRSVIIQ"
attribute_measured = "protease stability score"
recorded_number = 1.22

[[record]]
seq_string = "SEFEKDSEHAARVLMHELHTGDFESLHELADPNDRNSLHIGDKHWFDHGRHWVRKWFERFKNATLIVEDIRLDVQGDKVRMEVDGHLNINGKHYRVHLIFILRKINGKWHVQQVDIHVD"
attribute_measured = "protease stability score"
recorded_number = 2.41

[[record]]
seq_string = "DEEEEERRRIAKELTHLWHTGDEDRLIEMADPNDRILIGDFDIHGWESAMRFLRYFRREFGVKHEEIKDIEIQGEKTHIHSHLKVGDKRHHVLVILVVINGRHKRIEIRIH"
attribute_measured = "protease stability score"
recorded_number = 0.755

[[record]]
seq_string = "SEAERDAKELLELIVTTMRTGDEETLNRLMDPHTRLHVNGRDLIGRELMTEFLHEIRIEDSRTRDVRVFNGRLEVEGKLRGDWNGVEREVETRYIVEKVNGRWLLHSVTFE"
attribute_measured = "protease stability score"
recorded_number = 0.413

[[record]]
seq_string = "DRLEELLRHVSSLFLHSVETGDFDILQKLADPHVRMEVDGKELHGREHMVQRILDEYHKFGFTQIDSRLEDVRVYGDKVEVDLEHHFDGKTYKYEIILRKVNGRWTLESVIVR"
attribute_measured = "protease stability score"
recorded_number = 1.22

[[record]]
seq_string = "DEETKLNHLAIRLWLQSVMTGNEELQTKLIDPHVRNHIDGREYHGREVFRENLRDLWEKYGVKHVELTHEHSQGEKVHLRFKVDVNGRELDHKIIAHKIDGRWLDHSIHFH"
attribute_measured = "protease stability score"
recorded_number = 0.611

[[record]]
seq_string = "SERSEFITRLTREMIHAFETGDWKWLSELLDPNTRYHFRQGDKEFDMHGREEMVKMLEKILRHFGIDHFHIEDVKLYGDKVIVHHRSLVNGKEVHVRIEWDIVDGRIKSFNLDYHEN"
attribute_measured = "protease stability score"
recorded_number = 1.26

[[record]]
seq_string = "DEENEILRELHRELVEAWLTGDEELLRRLHDPDVRVHIGDKDLVGMEQMIEDIRFWLRRFDHLRIHIHRVRAINGVIHVDGELQLFQGDKSIRHQVIIELEVVNGRIKNTKFSTI"
attribute_measured = "protease stability score"
recorded_number = 1.4

[[record]]
seq_string = "TEEEHIIDDFDKRLLHAFVTGNEDLLAKLADPNVRLSVKIGDKTIERHGMESFRNWLRRFHEEIRIEDHKSDEVRFYNGVLEHHGTVLGHVNGVRTKVHVLEIYFIINGRMRNIWIEVR"
attribute_measured = "protease stability score"
recorded_number = 1.54

[[record]]
seq_string = "DEKEEFMKKLSKLFVELWITGNEEIFNKLMDPNTRSDVNGVENIGRDEIIRFWKEWRRRFGIKHIEVEHVHAIGDKIEIHGIQKAENHHTEIHIRVNVVDGRIREVEVRTH"
attribute_measured = "protease stability score"
recorded_number = 2.26

[[record]]
seq_string = "SEEDKHTEKLVRELWHAFETGDEDFILDMADPDVKFDFNGRKNVGREEFSRIWEDIFRRFKNIQLELTSITFQGHKVHTKGRTRINGKHHELIVHVVIVNGRLESLTIIIN"
attribute_measured = "protease stability score"
recorded_number = 1.49

[[record]]
seq_string = "SEVQESIKEVIEIWNKALETGDWHRLTELADPDTRVEIGDKDIIGREAVTSELEKVTHKFKNLRIDEIHIERLEIQGEKVELHGIIRGTVNGQHRFYHTEFIIVKINGRWRLRVIYFL"
attribute_measured = "protease stability score"
recorded_number = 1.79

[[record]]
seq_string = "DEEREDIEKVTHILSEIWETGDEHRLHRMLDPNTKVVIDGVEIHGRELIIRFRKELRHKLGLDRIEVDIDHIEVQGDKAISDTSIDYNGREFKVINTVHKYNGRWLVHRIIHE"
attribute_measured = "protease stability score"
recorded_number = 0.815

[[record]]
seq_string = "DEDEQKHREAAHLMLEMILTGDFEYFRHLLDPDVRLEINGKEIHGREEVYRHLLEWWQRIKNVRIKFKTMRIHIFDGVLFIHLDLEIEIGDKSIKTEILIVSIKIDGRWLLNSLHIHDR"
attribute_measured = "protease stability score"
recorded_number = 1.04

[[record]]
seq_string = "SEDEESSEKAAKFWLEMLRTGDWEEFERLADPNTKTHQGDKTIHGMEIVIEILMRVKGARVDTTHVRIDVQGDFVIFDVDNILNINGVHTEIRIHLRVLKVNGRWRVKELTIKHK"
attribute_measured = "protease stability score"
recorded_number = 1.57

[[record]]
seq_string = "DKEEEMVRHTATRFLHLLLTGDEEIITHLADPNMRIEVGDKESHGREHFADVIKEFSDHMRIKEWHIEVNEVVNGRILFDIHVDGIIGDKEDRIRFHLDIVVVNGKIKHVRIKIK"
attribute_measured = "protease stability score"
recorded_number = 1.15

[[record]]
seq_string = "EEEERESEEKFRLLLELLRTGDEEILKHMADPNTKIVINGVDLHGWKEWHRIMRRFKNVTIRFKELWVYGDKAQARVEFDIDGKSFEMELHFVVINGRLKSIHVHSH"
attribute_measured = "protease stability score"
recorded_number = 2.11

[[record]]
seq_string = "SDFEEEMKESFRLWVHALMTGDEDLLVELVDPDVRLHVGDKDFHGREHFRRWVHEFILRADHHIIHLRDFDVQGDKLHLHTQVDIKVNGQRHHTRVRIIAIKVDGRWVLTQFDVI"
attribute_measured = "protease stability score"
recorded_number = 2.27

